- Assay Info: protein stability index of a GFP-peptide fusion (yeast GPS) (PSI 1-4); higher = more stable; sorted into four equal gates, so the index is relative within each strain
- Conditions Used: pdr5∆
Lab note: anything with protein stability index at or over 3 counts as Met; the rest go in Not met.

Reference set (3 entries):
* LSCVKNDTISEDILQGI [NUT1] | Not met
* LKGLLQELKADSPFSLI [SRP72] | Not met
* ECADLWPRVASNSGVVV [RPL23A] | Not met

Task: // inclusive: protein stability index at least 3? input: LSESPVDFEKFETFLVD [SIN4]
Result: Not met

Task: // inclusive: protein stability index at least 3? input: GPVGKECADLWPRVASN [RPL23A]
Result: Met

Task: // inclusive: protein stability index at least 3? input: ILDGQDVEENRSEFIES [YJR042W/NUP85]
Result: Met

Task: // inclusive: protein stability index at least 3? input: FGPKKENRKKDESDSEN [YLR335W/NUP2]
Result: Met

Task: // inclusive: protein stability index at least 3? input: IVPLHSPFLMGHPMTKS [SEC65]
Result: Not met

Task: // inclusive: protein stability index at least 3? input: LNVIIDQLAVSPEQIDA [YCS4]
Result: Not met

Task: // inclusive: protein stability index at least 3? input: PAKIVNFEKPKNSSQLL [RPN5]
Result: Met

----------
- Assay Info: protein stability index of a GFP-peptide fusion (yeast GPS) (PSI 1-4); higher = more stable; sorted into four equal gates, so the index is relative within each strain
- Conditions Used: ubr1∆
Category | rule: reported protein stability index within range, see lower band: < 2; central band: ≥ 2 and < 3; upper band: ≥ 3

Task: Form: Item = LKKIASIPNLFPTDLEI [SWI1] ; Class = ?
Result: central band

Task: Form: Item = TAFQTQRTAQDRVQQDS [YML031W/NDC1] ; Class = ?
Result: central band

Task: Form: Item = HVKRITKIAQSQTMAET [ECM29] ; Class = ?
Result: central band

Task: Form: Item = PRLGSIDRNLKCQTCQE [RPO21] ; Class = ?
Result: central band

Task: Form: Item = TSLTSIKWENAFVSVYS [PRP8] ; Class = ?
Result: central band

Task: Form: Item = IKTRDACPLDNQPWQLA [HRT1] ; Class = ?
Result: upper band

Task: Form: Item = KRVVVPQALRVLRLKPG [RPL16A] ; Class = ?
Result: central band

Task: Form: Item = GLVDENKVEAFKSLYTF [YAR002W/NUP60] ; Class = ?
Result: central band

Task: Form: Item = NIYNFSPSERIEPLEIN [BRR2] ; Class = ?
Result: central band

Task: Form: Item = YHLLNYDPIKRIDAFNA [SSN3] ; Class = ?
Result: lower band

Task: Form: Item = GLFGNKPNNTANTGGGL [YGL172W/NUP49] ; Class = ?
Result: upper band

Task: Form: Item = PLHSGKTSLMDLLVIDS [SNU114] ; Class = ?
Result: central band

Task: Form: Item = VSDSEIIDLNLHSFTKQ [POP6] ; Class = ?
Result: central band

Task: Form: Item = DIILGQNIKAPSVKRQK [PRP8] ; Class = ?
Result: central band

----------
- Assay Info: protein stability index of a GFP-peptide fusion (yeast GPS) (PSI 1-4); higher = more stable; sorted into four equal gates, so the index is relative within each strain
- Conditions Used: doa10∆
Measurement Type: protein stability index

A selection of reference data follows.
* PLRGALATYGLTIDDLG [FAS2] | 2.38
* DLLKNAPLFKKNSSRPM [SMD3] | 2.27
* TIVNDSNYDWLFQLLNA [RPN9] | 2.34
* LQQQTPVTIWLFEQIGI [SME1] | 1.66
* FEQPSQREEAKKVVKKA [RPL27A] | 2.95
* EVNSKKKNKRALPNIEN [BRR2] | 2.9

Task: Field request: protein stability index | item: GQRPDRATTYEKLTMVF [SIN4]
Result: 1.27

Task: Field request: protein stability index | item: DDESEQISLNRLIDSMK [RRI1]
Result: 3.03

Task: Field request: protein stability index | item: SMFSGLDSTGFDSTAFN [MED2]
Result: 3.05

Task: Field request: protein stability index | item: PQLISDKFSPEDGLGPL [ARP7]
Result: 2.84

Task: Field request: protein stability index | item: AVNWQDKQGWTPLFHAL [NAS6]
Result: 2.07

Task: Field request: protein stability index | item: EDEDDDDDDDEDEEEEE [QCR6]
Result: 3.06

Task: Field request: protein stability index | item: KDYEAKTKAMSLSIEEN [POP1]
Result: 2.57

Task: Field request: protein stability index | item: IREIDVAGGKKALAIFV [RPS7A]
Result: 2.29

Task: Field request: protein stability index | item: EYLKGSESQLNSTLKKV [YCS4]
Result: 2.85

Task: Field request: protein stability index | item: FLELTRRADVKTATVKI [RPL38]
Result: 1.67

Task: Field request: protein stability index | item: DRVAKVLTYPEKVTRYN [RPO31]
Result: 2.87

Task: Field request: protein stability index | item: NLETLVTTKDDLSGADI [RPT2]
Result: 3.15

Task: Field request: protein stability index | item: GVDLKLKYSKRRSLKKQ [CSN12]
Result: 2.89

----------
Collected protein stability index values appear next to each entry.
- Assay Info: protein stability index of a GFP-peptide fusion (yeast GPS) (PSI 1-4); higher = more stable; sorted into four equal gates, so the index is relative within each strain
- Conditions Used: doa10∆
Hey, just send me the number, nothing else.

Task: Field request: protein stability index | item: KYLGLKPGSIDAISQVI [FAS1]
Result: 3.1

Task: Field request: protein stability index | item: PPPYVKFFTQSNLEKLP [MED7]
Result: 2.25

Task: Field request: protein stability index | item: AKAGLTFPVGRVHRLLR [HTA1]
Result: 2.03

Task: Field request: protein stability index | item: LRQQYEIELKKLPKVYK [SWI1]
Result: 2.04

Task: Field request: protein stability index | item: YHNKHMMCDFGTGNNNK [DIB1]
Result: 2.7

Task: Field request: protein stability index | item: ENLFSKEEVCQGMEGTV [YMR129W/POM152]
Result: 2.5

----------
- Assay Info: protein stability index of a GFP-peptide fusion (yeast GPS) (PSI 1-4); higher = more stable; sorted into four equal gates, so the index is relative within each strain
- Conditions Used: san1∆
Measurement Type: protein stability index
Hey, just send me the number, nothing else.

* MGVRTFSQKEMAFNLLG [FAS2] | 2.15
* GRLEIFKIHTAKVKKTG [RPT4] | 2.33
* ALLKLSVKLKQKRLEAG [DIS3] | 1.04
* LQAIDLLENPNCFFDVI [DIS3] | 3.06

Kindly consider the entry below.
Task: Field request: protein stability index | item: LSGSISERIVDCIIRLP [FAS1]
Result: 1.23

----------
- Assay Info: protein stability index of a GFP-peptide fusion (yeast GPS) (PSI 1-4); higher = more stable; sorted into four equal gates, so the index is relative within each strain
- Conditions Used: ubr1∆
Measurement Type: protein stability index
Hey, just send me the number, nothing else.

A selection of reference data follows.
* HQQQQQQQQQQQQQQQQ [SNF5] | 2.93
* AAAYSHELPRYGITHGL [RPL5] | 2.96
* IMGFISYHNGNLKGRPY [FAS2] | 3.01
* NTCTISTSKFESQYPIV [SWP82] | 2.81

Task: Field request: protein stability index | item: TVHKTFEGNVATKAING [PRP8]
Result: 2.71

Task: Field request: protein stability index | item: REDEFGSIPSLTTQFVT [YDL088C/ASM4]
Result: 3.2

Task: Field request: protein stability index | item: TTVSNDLENSPLKTELE [SSN2]
Result: 3.19

Task: Field request: protein stability index | item: LKNLRKKLNFKLCQAFM [YJR042W/NUP85]
Result: 2.98

Task: Field request: protein stability index | item: GKVTDVRSTIKFQLKKV [RPL1A]
Result: 3.46

Task: Field request: protein stability index | item: PHNSKSLGFLQQSNKLH [RPN3]
Result: 3.26

Task: Field request: protein stability index | item: FTLKQWNRLTISVTDTE [COR1]
Result: 1.12

Task: Field request: protein stability index | item: ALSYAALILADSEIEIS [RPP1A]
Result: 1.9

Task: Field request: protein stability index | item: QWIKFLLHTLYLRPASA [SSN8]
Result: 1.72

Task: Field request: protein stability index | item: VFGASDKQAEGTPLFTF [YOR098C/NUP1]
Result: 3.21

Task: Field request: protein stability index | item: DLSISALLGDKIYNFGE [RPN9]
Result: 3.12

Task: Field request: protein stability index | item: LCRNPLTSGLLYSYLIK [YJL039C/NUP192]
Result: 1.53

Task: Field request: protein stability index | item: SLAKSSALWSSRKGIAF [ECM29]
Result: 1.59

Task: Field request: protein stability index | item: LESTIAETQGSKVVIDS [IRR1]
Result: 2.98

Task: Field request: protein stability index | item: PVKSIRARLKGKEGRIR [RPO21]
Result: 2.94

Task: Field request: protein stability index | item: RYNAKAIGSGSEGAQAE [PUP2]
Result: 2.98

Task: Field request: protein stability index | item: SKISFIDEDKLYPSFKP [SSN2]
Result: 2.54

Task: Field request: protein stability index | item: QGNYVTEDIREGDQAEV [YMR129W/POM152]
Result: 3.39

Task: Field request: protein stability index | item: TCRKHTQHKVTQYKAGK [RPL42A]
Result: 2.91
